Recorded IC50, one value per entry.
Target: human NaV subtype, like NaV 1.7 (Homo sapiens, UniProt Q15858)
Sequence (Q15858 whole entry): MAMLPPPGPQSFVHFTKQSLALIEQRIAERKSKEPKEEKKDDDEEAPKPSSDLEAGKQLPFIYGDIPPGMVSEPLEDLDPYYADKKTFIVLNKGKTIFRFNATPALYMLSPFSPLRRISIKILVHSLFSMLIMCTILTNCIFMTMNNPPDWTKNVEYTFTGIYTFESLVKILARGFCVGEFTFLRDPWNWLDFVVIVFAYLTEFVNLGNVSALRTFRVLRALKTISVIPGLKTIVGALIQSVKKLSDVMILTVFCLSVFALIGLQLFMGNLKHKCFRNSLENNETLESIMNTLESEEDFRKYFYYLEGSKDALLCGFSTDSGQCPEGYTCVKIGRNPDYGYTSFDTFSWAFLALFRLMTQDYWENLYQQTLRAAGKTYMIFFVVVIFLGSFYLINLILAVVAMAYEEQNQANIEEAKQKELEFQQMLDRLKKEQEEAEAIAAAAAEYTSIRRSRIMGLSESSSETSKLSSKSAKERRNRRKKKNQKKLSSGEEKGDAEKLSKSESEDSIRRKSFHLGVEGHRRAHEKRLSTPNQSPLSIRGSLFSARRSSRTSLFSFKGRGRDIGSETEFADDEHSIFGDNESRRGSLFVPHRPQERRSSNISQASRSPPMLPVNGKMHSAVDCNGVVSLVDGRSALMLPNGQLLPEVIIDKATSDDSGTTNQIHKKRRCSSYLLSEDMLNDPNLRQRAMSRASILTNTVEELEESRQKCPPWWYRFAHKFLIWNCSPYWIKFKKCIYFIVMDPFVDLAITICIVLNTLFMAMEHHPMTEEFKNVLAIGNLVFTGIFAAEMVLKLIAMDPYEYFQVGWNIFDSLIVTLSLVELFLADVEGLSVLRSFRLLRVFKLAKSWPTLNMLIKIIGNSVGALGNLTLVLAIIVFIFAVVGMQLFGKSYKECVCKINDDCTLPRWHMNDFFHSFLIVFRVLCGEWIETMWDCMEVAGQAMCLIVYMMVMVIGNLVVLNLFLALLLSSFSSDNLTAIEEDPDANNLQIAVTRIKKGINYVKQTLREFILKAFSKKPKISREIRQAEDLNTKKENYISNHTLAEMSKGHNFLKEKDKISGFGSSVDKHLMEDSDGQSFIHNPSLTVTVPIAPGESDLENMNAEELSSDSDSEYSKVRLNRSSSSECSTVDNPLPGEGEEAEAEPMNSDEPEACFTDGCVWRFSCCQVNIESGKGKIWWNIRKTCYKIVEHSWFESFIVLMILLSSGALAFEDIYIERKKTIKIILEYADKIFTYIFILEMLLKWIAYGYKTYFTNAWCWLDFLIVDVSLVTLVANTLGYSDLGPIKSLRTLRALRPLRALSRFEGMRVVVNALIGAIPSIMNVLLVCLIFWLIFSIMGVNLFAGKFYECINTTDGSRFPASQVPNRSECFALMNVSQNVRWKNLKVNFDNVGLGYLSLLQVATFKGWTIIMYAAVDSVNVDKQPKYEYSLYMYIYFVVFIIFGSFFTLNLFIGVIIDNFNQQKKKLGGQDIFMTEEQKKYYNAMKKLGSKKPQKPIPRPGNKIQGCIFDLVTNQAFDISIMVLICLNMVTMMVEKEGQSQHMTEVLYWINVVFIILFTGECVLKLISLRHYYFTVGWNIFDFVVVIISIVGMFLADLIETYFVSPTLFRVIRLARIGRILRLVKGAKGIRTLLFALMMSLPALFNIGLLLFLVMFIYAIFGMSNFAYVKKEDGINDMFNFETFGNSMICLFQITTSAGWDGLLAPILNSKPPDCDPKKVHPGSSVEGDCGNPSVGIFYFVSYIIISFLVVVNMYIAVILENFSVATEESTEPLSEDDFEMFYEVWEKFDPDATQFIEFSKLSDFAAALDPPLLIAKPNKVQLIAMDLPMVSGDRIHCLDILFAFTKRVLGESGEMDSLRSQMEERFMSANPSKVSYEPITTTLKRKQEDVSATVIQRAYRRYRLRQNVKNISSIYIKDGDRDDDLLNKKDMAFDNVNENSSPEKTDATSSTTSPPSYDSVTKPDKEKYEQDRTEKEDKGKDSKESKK
Test: E-VIPR optical membrane potential assay with electrical stimulation
Type: cell-based
Details: active against one or more sodium channels; assay and NaV subtype not specified for Table 3; read-out: IC50 Binned Activity Data
valueType: IC50

compound="Cc1cnc(C2CN(Cc3ccccc3)CC3(CCN(C(=O)c4ccc(OC(C)C)c(C)c4)CC3)O2)o1 (stereo not shown) [Compound 83]" recordedvalue="< 2 µM"
compound="CC#CCN1CC(F)(F)OC2(CCN(C(=O)c3ccc(OC(C)C)c(C)c3)CC2)C1 [Compound 154]" recordedvalue="> 5 µM"
compound="COc1cc(C(=O)N2CCC3(CC2)CN(CC(F)F)CC(c2ccccc2)O3)ccc1OC(C)C (stereo not shown) [Compound 219]" recordedvalue="< 2 µM"
compound="Cc1cc(C(=O)N2CCC3(CC2)CN(CC(F)F)CC(c2ccccn2)O3)ccc1S(=O)(=O)C(C)C (stereo not shown) [Compound 65]" recordedvalue="> 5 µM"
compound="COc1cc(C(=O)N2CCC3(CC2)CN(CC(F)(F)F)C(c2ccccc2)CO3)ccc1OC(C)C (stereo not shown) [Compound 104]" recordedvalue="< 2 µM"
compound="CCN1CC(COC)OC2(CCN(C(=O)c3ccc(OC(C)C)c(C)c3)CC2)C1 (stereo not shown) [Compound 254]" recordedvalue="2 to 5 µM"
compound="CC(C)(C)S(=O)(=O)c1ccc(C(=O)N2CCC3(CC2)CN(CC(F)F)CC(c2ccc(F)cc2)O3)cc1 (stereo not shown) [Compound 269]" recordedvalue="2 to 5 µM"

Values from patent US9181273B2
